What pIC50 was measured for each of the following?
- TESTED_ON: Fatty Acid Synthase (FAS) (Homo sapiens, UniProt P49327)
- Construct: The FAS enzyme is prepared from HeLa cells; endogenous in cells
- Sequence (P49327 whole entry): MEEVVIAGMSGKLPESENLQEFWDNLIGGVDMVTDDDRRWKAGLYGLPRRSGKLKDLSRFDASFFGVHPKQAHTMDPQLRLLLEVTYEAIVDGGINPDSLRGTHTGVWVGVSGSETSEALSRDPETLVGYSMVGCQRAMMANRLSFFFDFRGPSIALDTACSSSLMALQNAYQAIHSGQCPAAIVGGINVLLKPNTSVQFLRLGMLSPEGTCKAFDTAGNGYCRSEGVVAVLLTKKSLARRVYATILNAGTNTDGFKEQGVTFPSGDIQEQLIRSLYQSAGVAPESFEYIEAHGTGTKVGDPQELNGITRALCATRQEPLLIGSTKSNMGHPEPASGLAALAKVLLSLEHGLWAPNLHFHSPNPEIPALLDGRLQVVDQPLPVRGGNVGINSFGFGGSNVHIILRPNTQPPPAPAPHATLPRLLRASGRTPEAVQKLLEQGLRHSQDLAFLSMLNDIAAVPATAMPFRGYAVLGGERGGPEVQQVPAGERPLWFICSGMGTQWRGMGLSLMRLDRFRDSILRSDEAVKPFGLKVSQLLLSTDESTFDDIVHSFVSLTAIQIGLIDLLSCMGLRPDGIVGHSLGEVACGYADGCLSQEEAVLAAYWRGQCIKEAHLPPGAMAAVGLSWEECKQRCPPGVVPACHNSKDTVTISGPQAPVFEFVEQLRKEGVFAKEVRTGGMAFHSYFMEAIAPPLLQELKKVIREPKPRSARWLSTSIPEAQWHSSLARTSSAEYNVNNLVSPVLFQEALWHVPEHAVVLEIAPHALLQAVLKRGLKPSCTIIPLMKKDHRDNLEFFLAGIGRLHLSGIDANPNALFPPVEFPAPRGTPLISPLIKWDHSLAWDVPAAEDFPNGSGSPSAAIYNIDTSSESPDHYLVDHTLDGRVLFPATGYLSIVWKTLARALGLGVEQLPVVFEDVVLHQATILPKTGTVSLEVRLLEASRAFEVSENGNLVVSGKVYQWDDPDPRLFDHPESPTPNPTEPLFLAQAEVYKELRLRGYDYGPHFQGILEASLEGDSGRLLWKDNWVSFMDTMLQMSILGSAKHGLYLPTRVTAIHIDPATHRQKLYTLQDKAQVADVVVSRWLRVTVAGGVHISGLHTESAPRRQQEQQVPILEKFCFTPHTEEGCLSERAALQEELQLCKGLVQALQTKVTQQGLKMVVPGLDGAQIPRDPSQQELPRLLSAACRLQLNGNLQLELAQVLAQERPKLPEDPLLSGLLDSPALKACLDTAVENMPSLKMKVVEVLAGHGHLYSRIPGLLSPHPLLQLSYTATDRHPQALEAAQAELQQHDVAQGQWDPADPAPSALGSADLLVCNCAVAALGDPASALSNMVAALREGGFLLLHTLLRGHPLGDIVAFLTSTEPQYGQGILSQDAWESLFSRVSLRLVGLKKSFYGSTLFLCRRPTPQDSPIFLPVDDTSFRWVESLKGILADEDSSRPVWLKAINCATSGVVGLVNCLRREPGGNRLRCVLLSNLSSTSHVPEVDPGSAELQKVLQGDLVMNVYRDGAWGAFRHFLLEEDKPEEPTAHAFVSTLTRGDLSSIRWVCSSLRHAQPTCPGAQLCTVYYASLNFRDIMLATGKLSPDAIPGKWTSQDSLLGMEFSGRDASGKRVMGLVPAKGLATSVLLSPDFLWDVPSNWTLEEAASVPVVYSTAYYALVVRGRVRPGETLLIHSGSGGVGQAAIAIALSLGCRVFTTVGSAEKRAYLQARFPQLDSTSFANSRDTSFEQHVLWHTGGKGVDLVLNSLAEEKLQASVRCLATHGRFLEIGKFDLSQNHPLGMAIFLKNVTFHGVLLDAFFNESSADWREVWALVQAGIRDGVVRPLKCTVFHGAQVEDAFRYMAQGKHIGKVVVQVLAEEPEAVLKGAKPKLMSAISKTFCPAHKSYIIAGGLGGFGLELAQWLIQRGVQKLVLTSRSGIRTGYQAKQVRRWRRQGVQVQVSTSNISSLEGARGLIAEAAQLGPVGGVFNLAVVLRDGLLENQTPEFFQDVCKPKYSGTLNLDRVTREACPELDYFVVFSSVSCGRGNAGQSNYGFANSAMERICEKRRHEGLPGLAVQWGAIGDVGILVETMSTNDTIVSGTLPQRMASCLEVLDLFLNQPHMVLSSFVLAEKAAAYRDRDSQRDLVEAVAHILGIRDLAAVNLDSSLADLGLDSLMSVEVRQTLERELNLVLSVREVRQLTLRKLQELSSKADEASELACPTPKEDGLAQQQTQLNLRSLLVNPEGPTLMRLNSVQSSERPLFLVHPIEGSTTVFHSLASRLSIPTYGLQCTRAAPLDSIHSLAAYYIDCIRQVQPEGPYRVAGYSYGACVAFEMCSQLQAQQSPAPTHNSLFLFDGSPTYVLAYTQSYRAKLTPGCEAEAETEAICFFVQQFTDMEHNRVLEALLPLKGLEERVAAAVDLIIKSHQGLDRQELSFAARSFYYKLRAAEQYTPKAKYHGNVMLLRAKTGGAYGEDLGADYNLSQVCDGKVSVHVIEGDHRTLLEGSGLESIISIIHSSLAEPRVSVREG
- EXPERIMENTAL_PROTOCOL: Human FAS Enzyme Assay
- TEST_PARAMETERS: FAS enzyme prepared from HeLa cells; NADPH consumption; read-out: IC50 (potency range)
pIC50: −log10 of the molar value.

Determine from records and report pIC50 for `CC(=O)N[C@H]1CC[C@@H](C(=O)N(C)c2ccc(-c3nc4ccccc4o3)cc2)C1`
≥ 6.30

Name the recorded pIC50 of the compound listed here: `CN(C)CCCCCC(=O)N[C@H]1CC[C@@H](C(=O)N(C)c2ccc(-c3nc4ccccc4[nH]3)cc2)C1`
5.52 to 6.30

Quick one: give measured pIC50 for `CCC(=O)N[C@H]1CC[C@@H](C(=O)N(C)c2ccc(-c3nc4ccccc4[nH]3)cc2)C1`
≥ 6.30

Please indicate pIC50 recorded for `CCC(=O)N[C@H]1CC[C@@H](C(=O)N(C)c2ccc(-c3cn4ccccc4n3)cc2)C1`
5.52 to 6.30

Fill in pIC50 for record `CCCC(=O)N[C@H]1CC[C@@H](C(=O)N(C)c2ccc(-c3nc4ccccc4o3)cc2)C1`
≥ 6.30

Quick one: give measured pIC50 for `CN(C)CCCCCC(=O)N[C@H]1CC[C@@H](C(=O)N(C)c2ccc(-c3nc4ccccc4n3C)cc2)C1`
5.52 to 6.30
